target: Interleukin-23 receptor (Homo sapiens, UniProt Q5VWK5); experiment: Inhibition of interleukin-23 binding to human interleukin-23 receptor incubated for 2 hrs by competitive binding ELISA
Sequence (Q5VWK5 whole entry): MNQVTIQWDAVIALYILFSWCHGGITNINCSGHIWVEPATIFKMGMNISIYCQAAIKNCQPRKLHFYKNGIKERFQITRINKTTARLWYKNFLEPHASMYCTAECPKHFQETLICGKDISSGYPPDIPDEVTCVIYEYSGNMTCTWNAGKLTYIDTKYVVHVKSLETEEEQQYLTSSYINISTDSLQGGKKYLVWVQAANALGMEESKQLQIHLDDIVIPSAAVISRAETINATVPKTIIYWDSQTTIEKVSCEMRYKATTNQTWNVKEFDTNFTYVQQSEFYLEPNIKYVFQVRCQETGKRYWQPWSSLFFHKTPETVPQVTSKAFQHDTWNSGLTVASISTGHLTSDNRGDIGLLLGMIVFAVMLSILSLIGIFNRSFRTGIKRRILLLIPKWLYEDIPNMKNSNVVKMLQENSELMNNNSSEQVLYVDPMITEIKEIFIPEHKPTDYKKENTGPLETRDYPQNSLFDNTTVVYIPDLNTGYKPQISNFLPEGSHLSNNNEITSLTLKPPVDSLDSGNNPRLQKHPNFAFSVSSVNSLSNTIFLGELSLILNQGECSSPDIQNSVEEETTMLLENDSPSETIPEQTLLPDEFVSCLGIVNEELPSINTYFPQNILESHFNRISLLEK
pIC50: −log10 of the molar value.
readout.type: pIC50

# compound.structure.string, pIC50
rows = [
    ("CC(=O)N[C@@H](CS)C(=O)N[C@@H](C)C(=O)N[C@@H](CC(=O)O)C(=O)N[C@@H](Cc1c[nH]c2ccccc12)C(=O)N[C@H](C(=O)N[C@@H](CS)C(=O)N[C@@H](Cc1ccc(O)cc1)C(=O)N[C@@H](Cc1c[nH]c2ccccc12)C(=O)N[C@@H](Cc1cnc[nH]1)C(=O)N[C@@H](CCC(=O)O)C(=O)N[C@@H](Cc1ccccc1)C(=O)NCC(N)=O)C(C)C", "6.00 to 6.30"),
]

Okay, next one:
(Q) What measured pIC50 goes with CC(=O)N[C@@H](CS)C(=O)N[C@@H](CCC(N)=O)C(=O)N[C@H](C(=O)N[C@@H](Cc1c[nH]c2ccccc12)C(=O)N[C@@H](CCC(N)=O)C(=O)N[C@@H](CS)C(=O)N[C@@H](Cc1ccc(O)cc1)C(=O)N[C@@H](Cc1c[nH]c2ccccc12)C(=O)N(C)[C@@H](CCC(=O)O)C(=O)N[C@@H](CC(N)=O)C(=O)NCC(=O)NCCOCC(=O)N[C@H](CCCCN)C(=O)O)[C@@H](C)O ?
(A) < 6.00

---

test: Half life in simulated intestinal fluid at 20 uM by LC-MS/MS analysis; format: ADME
Below, each entry is listed alongside its reported half-life at 20 µM.

Here are 3 molecules together with their reported answers.
# compound.structure.string, recorded.result
data = [
    ("CC(=O)NCCCC[C@H](NC(=O)C(C)(C)NC(=O)[C@H](Cc1ccc2ccccc2c1)NC(=O)[C@H](Cc1ccc(OCCN)cc1)NC(=O)[C@@H]1CSCC[C@H](NC(C)=O)C(=O)N[C@@H](CCC(N)=O)C(=O)N[C@@H]([C@@H](C)O)C(=O)N[C@@H](Cc2c[nH]c3ccccc23)C(=O)N[C@@H](CCC(N)=O)C(=O)N1)C(=O)N[C@@H](CC(N)=O)C(=O)N[C@@H](C)C(N)=O", "1 to 2 h"),
    ("COc1ccc(C[C@H](NC(=O)[C@@H](NC(=O)[C@H](CCC(N)=O)NC(=O)[C@H](Cc2c[nH]c3ccccc23)NC(=O)[C@@H](NC(=O)[C@H](CC(N)=O)NC(=O)[C@@H](NC(C)=O)C(C)(C)S)[C@@H](C)O)C(C)(C)S)C(=O)N[C@@H](Cc2ccc3ccccc3c2)C(=O)NC2(C(=O)N[C@@H](CCCCNC(C)=O)C(=O)N[C@@H](CC(N)=O)C(=O)N[C@@H](CC(N)=O)C(N)=O)CCOCC2)cc1", "> 6 h"),
    ("COc1ccc(C[C@H](NC(=O)[C@@H](NC(=O)[C@H](CCC(N)=O)NC(=O)[C@H](Cc2c[nH]c3ccccc23)NC(=O)[C@@H](NC(=O)[C@H](CCC(N)=O)NC(=O)[C@@H](NC(C)=O)C(C)(C)S)[C@@H](C)O)C(C)(C)S)C(=O)N[C@@H](Cc2ccc3ccccc3c2)C(=O)N[C@@](C)(CCCCN)C(=O)N[C@@H](CCCCNC(C)=O)C(=O)N[C@@H](CC(N)=O)C(=O)NCC(N)=O)cc1", "> 6 h"),
]

Okay, now this molecule:
(Q) Entry COc1ccc(C[C@H](NC(=O)[C@@H]2CSCC[C@H](NC(C)=O)C(=O)N[C@@H](CCC(N)=O)C(=O)N[C@@H]([C@@H](C)O)C(=O)N[C@@H](Cc3c[nH]c4ccccc34)C(=O)N[C@@H](CCC(N)=O)C(=O)N2)C(=O)N[C@@H](Cc2ccc3ccccc3c2)C(=O)NC(C)(C)C(=O)N[C@@H](CCCCNC(C)=O)C(=O)N[C@@H](CC(N)=O)C(=O)NCC(N)=O)cc1 : reported half-life at 20 µM = ?
(A) > 6 h

---

Quick reference: half-life at 20 µM of the listed items.
assay: Half life in simulated intestinal fluid at 20 uM by LC-MS/MS analysis; assay type: ADME

# compound.structure.string, half-life at 20 µM
records = [
    ("COc1ccc(CC[C@H](NC(=O)[C@@H]2CSCC[C@H](NC(C)=O)C(=O)N[C@@H](CCC(N)=O)C(=O)N[C@@H]([C@@H](C)O)C(=O)N[C@@H](Cc3c[nH]c4ccccc34)C(=O)N[C@@H](CCC(N)=O)C(=O)N2)C(=O)N[C@@H](Cc2ccc3ccccc3c2)C(=O)N[C@@](C)(CCCCN)C(=O)N[C@@H](CCCCNC(C)=O)C(=O)N[C@@H](CC(N)=O)C(=O)NCC(N)=O)cc1OC", "3 to 6 h"),
    ("CC(=O)N[C@@H](Cc1ccccc1)C(=O)N[C@H]1CCSC[C@@H](C(=O)N[C@@H](Cc2ccc(OCCN)cc2)C(=O)N[C@@H](Cc2ccc3ccccc3c2)C(=O)N[C@@](C)(CCCCN)C(=O)N[C@@H](CCC(=O)O)C(=O)N[C@@H](CC(N)=O)C(=O)N[C@@H](CC(N)=O)C(N)=O)NC(=O)[C@H](CCC(N)=O)NC(=O)[C@H](Cc2c[nH]c3ccccc23)NC(=O)[C@H]([C@@H](C)O)NC(=O)[C@H](CCC(N)=O)NC1=O", "1 to 2 h"),
]

Now examine the next entry.
(Q) Fill in: half-life at 20 µM of CC(=O)NCCCC[C@H](NC(=O)[C@](C)(CCCN)NC(=O)[C@H](Cc1ccc2ccccc2c1)NC(=O)[C@H](Cc1ccc2ccccc2c1)NC(=O)[C@@H]1CSCC[C@H](NC(C)=O)C(=O)N[C@@H](CCC(N)=O)C(=O)N[C@@H]([C@@H](C)O)C(=O)N[C@@H](Cc2c[nH]c3ccccc23)C(=O)N[C@@H](CCC(N)=O)C(=O)N1)C(=O)N[C@@H](CC(N)=O)C(=O)NCC(N)=O is ___
(A) 2 to 3 h

---

biological target: Interleukin-23 receptor (Homo sapiens); test: Inhibition of interleukin-23 receptor in human DB cells assessed as reduction in IL-23-stimulated STAT3 phosphorylation incubated for 30 mins by HTRF assay; assay type: cell-based
readout.type: IC50

Reference set (4 entries):
# compound.structure.string, IC50
rows = [
    ("COc1ccc(C[C@H](NC(=O)[C@@H](NC(=O)[C@H](CCC(N)=O)NC(=O)[C@H](Cc2c[nH]c3ccccc23)NC(=O)[C@@H](NC(=O)[C@H](CC(N)=O)NC(=O)[C@@H](NC(C)=O)C(C)(C)S)[C@@H](C)O)C(C)(C)S)C(=O)N[C@@H](Cc2ccc3ccccc3c2)C(=O)NC(C)(C)C(=O)N[C@@H](CCCCNC(C)=O)C(=O)N[C@@H](CC(N)=O)C(=O)N[C@@H](CCC(N)=O)C(N)=O)cc1", "< 10 nM"),
    ("CC(=O)NCCCC[C@H](NC(=O)[C@@](C)(NC(=O)[C@H](Cc1ccc2ccccc2c1)NC(=O)[C@H](Cc1ccc(C(N)=O)cc1)NC(=O)[C@@H](NC(=O)[C@H](CCC(N)=O)NC(=O)[C@H](Cc1c[nH]c2ccccc12)NC(=O)[C@@H](NC(=O)[C@H](CCC(N)=O)NC(=O)[C@@H](NC(C)=O)C(C)(C)S)[C@@H](C)O)C(C)(C)S)C(C)C)C(=O)N[C@@H](CC(N)=O)C(=O)N[C@@H](CC(N)=O)C(N)=O", "< 10 nM"),
    ("CC(=O)N[C@H](C(=O)N[C@@H](CCCNC(=N)N)C(=O)N[C@H](C(=O)N[C@@H](Cc1c[nH]c2ccccc12)C(=O)N[C@@H](CCC(N)=O)C(=O)N[C@H](C(=O)N[C@@H](Cc1ccc(O)cc1)C(=O)N[C@@H](Cc1c[nH]c2ccccc12)C(=O)N[C@@H](CCCNC(=N)N)C(=O)N[C@@H](CCCCN)C(=O)N[C@@H](Cc1ccccc1)C(=O)NCC(=O)NCCOCC(=O)N[C@H](CCCCN)C(N)=O)C(C)(C)S)[C@@H](C)O)C(C)(C)S", "25 to 100 nM"),
    ("CC(=O)NCCCC[C@H](NC(=O)[C@](C)(CCCN)NC(=O)[C@H](Cc1ccc2ccccc2c1)NC(=O)[C@H](Cc1ccc(OCCN)cc1)NC(=O)[C@@H]1CSCC[C@H](NC(C)=O)C(=O)N[C@@H](CCC(N)=O)C(=O)N[C@@H]([C@@H](C)O)C(=O)N[C@@H](Cc2c[nH]c3ccccc23)C(=O)N[C@@H](CCC(N)=O)C(=O)N1)C(=O)N[C@@H](CC(N)=O)C(=O)NCC(N)=O", "< 10 nM"),
]

Kindly consider the entry below.
(Q) IC50 for CC(=O)N[C@H](C(=O)N[C@H](C(=O)N[C@H](C(=O)N[C@@H](Cc1c[nH]c2ccccc12)C(=O)N[C@@H](CCC(N)=O)C(=O)N[C@H](C(=O)N[C@@H](Cc1ccc(OCCN)cc1)C(=O)N[C@@H](Cc1ccc2ccccc2c1)C(=O)N[C@@](C)(CCCCN)C(=O)N[C@@H](CCC(=O)O)C(=O)N[C@@H](CC(N)=O)C(=O)NCC(N)=O)C(C)(C)S)[C@@H](C)O)[C@@H](C)O)C(C)(C)S ?
(A) < 10 nM
